EXPERIMENT DESCRIPTION: Growth inhibition of mouse B104-1-1 cells after 48 hrs by WST1 assay
Assay type: cell-based
QUANTITY: GI50 at 48 h
Answer shape: numeric part, then the unit.

Inquiry: Find the recorded GI50 at 48 h belonging to CCC(C)/C=C(C)/C=C/c1cc2c(cn1)=C(OC)[C@@](C)(OC(C)=O)C(=O)C=2Cl (stereo partly specified) and report it.
Reply text: 50 µM
